Protocol text: Biodistribution in AR42J tumor-bearing nude mice
Conditions used: mouse, intestine, iv, 25 pmol/mouse, Biodistribution Intestine, Control, 60 min p.i., tracer only, n = 5
Parameter: tissue uptake at 1 h (%ID/g)
Write down the numeric answer in %ID/g and omit the unit.

Which tissue uptake at 1 h value is on record for C[C@@H](O)[C@H](NC(=O)[C@@H]1CSSC[C@H](NC(=O)[C@@H](Cc2ccccc2)NC(=O)CN2CCN(CC(=O)O)CCN(CC(=O)O)CCN(CC(=O)O)CC2)C(=O)N[C@@H](Cc2ccc(O)c(I)c2)C(=O)N[C@H](Cc2c[nH]c3ccccc23)C(=O)N[C@@H](CCCCN)C(=O)N[C@@H]([C@@H](C)O)C(=O)N1)C(=O)O [[^68Ga]HA-DOTATATE, [^68Ga]DOTA-3-iodo-Tyr^3-octreotate, metal not drawn] ?
4

* * *

Protocol text: Biodistribution in AR42J tumor-bearing nude mice
Conditions used: mouse, blood, iv, 25 pmol/mouse, Biodistribution Blood, Control, 60 min p.i., tracer only, n = 5
Parameter: tissue uptake at 1 h
Your reply should be a number followed by the unit it is expressed in.

Which tissue uptake at 1 h value is on record for C[C@@H](O)[C@H](NC(=O)[C@@H]1CSSC[C@H](NC(=O)[C@@H](Cc2ccccc2)NC(=O)CN2CCN(CC(=O)O)CCN(CC(=O)O)CCN(CC(=O)O)CC2)C(=O)N[C@@H](Cc2ccc(O)c(I)c2)C(=O)N[C@H](Cc2c[nH]c3ccccc23)C(=O)N[C@@H](CCCCN)C(=O)N[C@@H]([C@@H](C)O)C(=O)N1)C(=O)O [[^68Ga]HA-DOTATATE, [^68Ga]DOTA-3-iodo-Tyr^3-octreotate, metal not drawn] ?
0.7 %ID/g

* * *

Protocol text: Biodistribution in AR42J tumor-bearing nude mice
Conditions used: mouse, in vivo, Biodistribution Intestine, Competition, 60 min p.i., coinjection of 20 μg/mouse unlabeled TOC, n = 3
Parameter: tissue uptake at 1 h (%ID/g)
Write down the numeric answer in %ID/g and omit the unit.

Which tissue uptake at 1 h value is on record for C[C@@H](O)[C@H](NC(=O)[C@@H]1CSSC[C@H](NC(=O)[C@@H](Cc2ccccc2)NC(=O)CN2CCN(CC(=O)O)CCN(CC(=O)O)CCN(CC(=O)O)CC2)C(=O)N[C@@H](Cc2ccc(O)cc2)C(=O)N[C@H](Cc2c[nH]c3ccccc23)C(=O)N[C@@H](CCCCN)C(=O)N[C@@H]([C@@H](C)O)C(=O)N1)C(=O)O [[^68Ga]DOTATATE, [^68Ga]DOTA-Tyr^3-octreotate, metal not drawn] ?
0.6

* * *

Protocol text: Biodistribution in AR42J tumor-bearing nude mice
Conditions used: mouse, in vivo, Biodistribution Spleen, Competition, 60 min p.i., coinjection of 20 μg/mouse unlabeled TOC, n = 3
Parameter: tissue uptake at 1 h

Which tissue uptake at 1 h value is on record for C[C@@H](O)[C@H](NC(=O)[C@@H]1CSSC[C@H](NC(=O)[C@@H](Cc2ccccc2)NC(=O)CN2CCN(CC(=O)O)CCN(CC(=O)O)CCN(CC(=O)O)CC2)C(=O)N[C@@H](Cc2ccc(O)cc2)C(=O)N[C@H](Cc2c[nH]c3ccccc23)C(=O)N[C@@H](CCCCN)C(=O)N[C@@H]([C@@H](C)O)C(=O)N1)C(=O)O [[^68Ga]DOTATATE, [^68Ga]DOTA-Tyr^3-octreotate, metal not drawn] ?
0.2 %ID/g
